Cited source for all entries: patent US20140315933A1

Target: URAT-1 transporter (Homo sapiens, UniProt Q96S37)
Construct: expressed in transfected cells
Sequence (Q96S37 with tags, fused parts or gaps): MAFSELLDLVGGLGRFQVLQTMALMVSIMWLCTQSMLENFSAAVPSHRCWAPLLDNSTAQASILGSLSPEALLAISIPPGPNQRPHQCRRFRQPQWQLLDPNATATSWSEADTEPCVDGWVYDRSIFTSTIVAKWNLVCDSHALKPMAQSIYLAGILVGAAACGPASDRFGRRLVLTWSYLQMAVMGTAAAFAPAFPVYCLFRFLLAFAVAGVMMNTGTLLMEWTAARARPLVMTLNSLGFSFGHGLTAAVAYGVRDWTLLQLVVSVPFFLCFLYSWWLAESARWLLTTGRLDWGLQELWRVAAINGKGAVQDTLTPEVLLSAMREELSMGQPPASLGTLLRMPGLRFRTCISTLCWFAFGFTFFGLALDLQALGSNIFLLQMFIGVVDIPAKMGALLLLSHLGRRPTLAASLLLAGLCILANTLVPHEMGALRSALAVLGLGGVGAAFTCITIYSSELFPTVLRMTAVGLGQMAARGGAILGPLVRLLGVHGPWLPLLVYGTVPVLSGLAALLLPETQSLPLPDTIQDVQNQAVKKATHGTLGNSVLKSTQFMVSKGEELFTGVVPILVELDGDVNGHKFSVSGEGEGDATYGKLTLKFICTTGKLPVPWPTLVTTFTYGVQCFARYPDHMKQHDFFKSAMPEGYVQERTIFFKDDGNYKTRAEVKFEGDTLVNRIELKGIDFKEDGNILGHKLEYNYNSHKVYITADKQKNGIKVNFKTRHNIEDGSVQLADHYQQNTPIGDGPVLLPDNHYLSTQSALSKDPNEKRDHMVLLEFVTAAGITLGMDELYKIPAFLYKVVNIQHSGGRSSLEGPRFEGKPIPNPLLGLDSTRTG
Experiment: URAT-1 inhibitor activity: [14C]-uric acid uptake into CHO-URAT1(L)GFP#8 (CHO#8) cells, scintillation proximity
Format: cell-based
Each record here notes measured pIC50.
Field pIC50 (float): negative decimal logarithm of the concentration in molar.

Please review the entries below; each comes with its answer.
# ENTRY_SMILES, ENDPOINT_NAME, NUMBER
rows = [
    ("O=S(=O)(Nc1ncns1)c1cc(Cl)c(Oc2ccc(Cl)cc2OC(F)(F)F)cc1F", "pIC50", 6.29),
    ("N#Cc1ccc(Oc2c(F)cc(S(=O)(=O)Nc3ncns3)cc2Br)cc1Cl", "pIC50", 5.72),
    ("CC(C)c1cc(C#N)cc(Oc2ccc(S(=O)(=O)Nc3nccs3)cc2C#N)c1", "pIC50", 6.63),
    ("N#Cc1cc(S(=O)(=O)Nc2ncc(F)s2)ccc1Oc1c(F)cccc1Cl", "pIC50", 6.26),
]

pIC50 for URAT-1 transporter (Homo sapiens, UniProt Q96S37) with input N#Cc1cc(S(=O)(=O)Nc2ncc(F)s2)ccc1Oc1ccc(Cl)c(C(F)(F)F)c1 equals 6.13

pIC50 for URAT-1 transporter (Homo sapiens, UniProt Q96S37) with input CCc1cc(F)ccc1Oc1ccc(S(=O)(=O)Nc2ncc(F)s2)cc1C#N equals 6.53

====

Molecular target: URAT-1 transporter (Homo sapiens, UniProt Q96S37)
Construct: expressed in transfected cells
Assay: URAT-1 inhibitor activity: [14C]-uric acid uptake into CHO-URAT1(L)GFP#8 (CHO#8) cells, scintillation proximity
Format: cell-based
Each record here notes measured IC50.

get_value(item= N#Cc1cc(S(=O)(=O)Nc2ncns2)ccc1Oc1ccc(Cl)cc1OC(F)(F)F , readout=IC50) returns 986 nM

get_value(item= N#Cc1cc(S(=O)(=O)Nc2ncc(F)s2)ccc1Oc1cc(C(F)(F)F)ccc1F , readout=IC50) returns 718 nM

get_value(item= N#Cc1ccc(OC(F)F)c(Oc2cc(F)c(S(=O)(=O)Nc3ncns3)cc2Cl)c1 , readout=IC50) returns 3430 nM

get_value(item= N#Cc1cc(S(=O)(=O)Nc2ncc(F)s2)ccc1Oc1c(F)ccc(F)c1F , readout=IC50) returns 1630 nM

get_value(item= N#Cc1cc(S(=O)(=O)Nc2cscn2)ccc1Oc1ccc(Cl)cc1OC(F)F , readout=IC50) returns 118 nM

get_value(item= N#Cc1cc(S(=O)(=O)Nc2nccs2)ccc1Oc1ccc(Cl)c(I)c1 , readout=IC50) returns 73 nM

get_value(item= N#Cc1ccc(Oc2cc(F)c(S(=O)(=O)Nc3ncns3)cc2Cl)c(OC(F)F)c1 , readout=IC50) returns > 7250 nM

get_value(item= N#Cc1cc(S(=O)(=O)Nc2nccs2)ccc1Oc1ccc(Br)c(F)c1 , readout=IC50) returns 161 nM

====

Target: URAT-1 transporter (Homo sapiens)
Construct: expressed in transfected cells
Assay: URAT-1 inhibitor activity: [14C]-uric acid uptake into CHO-URAT1(L)GFP#8 (CHO#8) cells, scintillation proximity
Type: cell-based
Each record here notes measured IC50.

Please review the entries below; each comes with its answer.
# COMPOUND, ENDPOINT_NAME, RESULT
measured = [
    ("N#Cc1cc(S(=O)(=O)Nc2ncns2)ccc1Oc1cccc(C(F)(F)F)c1 [Example 54]", "IC50", "2.85 µM"),
    ("N#Cc1cc(Oc2cc(F)c(S(=O)(=O)Nc3cscn3)cc2F)ccc1F [compound 221]", "IC50", "> 10 µM"),
    ("N#Cc1cc(S(=O)(=O)Nc2ncns2)ccc1Oc1ccc(Cl)cc1Cl [Example 16]", "IC50", "0.428 µM"),
    ("N#Cc1cc(S(=O)(=O)Nc2nccs2)ccc1Oc1ccc(N)cc1 [compound 184]", "IC50", "> 6.24 µM"),
    ("CCc1ccc(Oc2ccc(S(=O)(=O)Nc3ncc(F)s3)cc2C#N)cc1 [Example 95]", "IC50", "> 7.36 µM"),
    ("COc1cc(C(F)(F)F)ccc1Oc1ccc(S(=O)(=O)Nc2ncns2)cc1C#N [Example 25]", "IC50", "> 10 µM"),
    ("N#Cc1cc(S(=O)(=O)Nc2ncc(F)s2)ccc1Oc1ccccc1Cl [Example 96]", "IC50", "0.675 µM"),
    ("O=S(=O)(Nc1cscn1)c1cc(Cl)c(Oc2ccc(Cl)cc2OC(F)F)cc1F [Example 159]", "IC50", "0.499 µM"),
]

Next, consider the following compound.
IC50 for URAT-1 transporter (Homo sapiens) with input N#Cc1cc(S(=O)(=O)Nc2nccs2)ccc1Oc1ccccc1Cl [compound 181] equals 1.22 µM

====

Each record here notes measured pIC50.
Molecular target: URAT-1 transporter (Homo sapiens)
Construct: expressed in transfected cells
Experiment: URAT-1 inhibitor activity: [14C]-uric acid uptake into CHO-URAT1(L)GFP#8 (CHO#8) cells, scintillation proximity
Type: cell-based
Field pIC50 (float): negative decimal logarithm of the concentration in molar.

Please review the entries below; each comes with its answer.
# ENTRY_SMILES, TARGET_SYSTEM, pIC50
measured = [
    ("CCOc1cc(Cl)ccc1Oc1ccc(S(=O)(=O)Nc2ncns2)cc1C#N", "URAT-1 transporter (Homo sapiens)", 6.45),
    ("N#Cc1cc(S(=O)(=O)Nc2ncc(F)s2)ccc1Oc1cc(F)c(F)cc1F", "URAT-1 transporter (Homo sapiens)", 5.95),
    ("N#Cc1cc(S(=O)(=O)Nc2nncs2)ccc1Oc1ccc(F)c(F)c1", "URAT-1 transporter (Homo sapiens)", 6.19),
]

pIC50 for URAT-1 transporter (Homo sapiens) with input N#Cc1cc(Oc2ccc(S(=O)(=O)Nc3nccs3)cc2F)ccc1F equals 6.01

pIC50 for URAT-1 transporter (Homo sapiens) with input COc1ccc(Oc2cc(F)c(S(=O)(=O)Nc3nncs3)cc2Cl)cc1F equals 5.48

pIC50 for URAT-1 transporter (Homo sapiens) with input COc1ccc(Oc2ccc(S(=O)(=O)Nc3ncns3)cc2C#N)cc1Cl equals 5.83

pIC50 for URAT-1 transporter (Homo sapiens) with input O=S(=O)(Nc1cscn1)c1cc(Cl)c(Oc2cc(Cl)ccc2OC(F)F)cc1F equals 5.49

====

Target: URAT-1 transporter (Homo sapiens, UniProt Q96S37)
Construct: expressed in transfected cells
Assay: URAT-1 inhibitor activity: [14C]-uric acid uptake into CHO-URAT1(L)GFP#8 (CHO#8) cells, scintillation proximity
Format: cell-based
Method: The nucleotide sequence for the long isoform of URAT1 (NM_144585) was C-terminally fused to that of enhanced green fluorescent protein (eGFP) (hereinafter referred to as URAT1(L)GFP). The combined sequence was codon-optimised and custom synthesized. […] The potency of the compounds of formula (I) as inhibitors of the URAT-1 transporter was determined as follows. […] Assay ready flasks were generated by the same method, except the cells were not cultured in blasticidin. […]
ENDPOINT_NAME: IC50 (nM)
Only the number, expressed in nM, is required.

Please review the entries below; each comes with its answer.
# ENTRY_SMILES, TARGET_SYSTEM, IC50 [nM]
data = [
    ("N#Cc1cc(S(=O)(=O)Nc2ncc(Cl)s2)ccc1Oc1ccc(Cl)cc1F", "URAT-1 transporter (Homo sapiens, UniProt Q96S37)", 415),
    ("COc1cc(Cl)ccc1Oc1cc(F)c(S(=O)(=O)Nc2nncs2)cc1Cl", "URAT-1 transporter (Homo sapiens, UniProt Q96S37)", 2510),
    ("N#Cc1cc(S(=O)(=O)Nc2ncc(F)s2)ccc1Oc1cc(F)cc(Cl)c1", "URAT-1 transporter (Homo sapiens, UniProt Q96S37)", 699),
]

Next, consider the following molecule.
get_value(item= [2H]C([2H])([2H])Oc1cc(Cl)ccc1Oc1ccc(S(=O)(=O)Nc2ncns2)cc1C#N , readout=IC50) returns 517

====

Target: URAT-1 transporter (Homo sapiens)
Construct: expressed in transfected cells
Assay: URAT-1 inhibitor activity: [14C]-uric acid uptake into CHO-URAT1(L)GFP#8 (CHO#8) cells, scintillation proximity
Assay type: cell-based
// classify: if (IC50 < 1000 nM) fulfilled else not fulfilled

Below, 3 compounds whose answers are already recorded.
# COMPOUND, ANSWER_LABEL
data = [
    ("N#Cc1cc(S(=O)(=O)Nc2ncns2)ccc1Oc1ccc(F)c(F)c1 [compound 212]", "fulfilled"),
    ("COc1ccccc1Oc1cc(F)c(S(=O)(=O)Nc2nncs2)cc1Cl [compound 305]", "not fulfilled"),
    ("COc1cccc(Oc2cc(F)c(S(=O)(=O)Nc3nncs3)cc2Cl)c1 [compound 306]", "not fulfilled"),
]

[in] Please indicate whether the reported IC50 of Cc1cc(S(=O)(=O)Nc2nncs2)c(F)cc1Oc1ccc(F)c(F)c1 [compound 200] is strictly below 1000 nM.
[out] not fulfilled

[in] Please indicate whether the reported IC50 of N#Cc1cc(S(=O)(=O)Nc2ncc(Cl)s2)ccc1Oc1ccc(C(F)(F)F)cc1 [Example 88] is strictly below 1000 nM.
[out] not fulfilled

[in] Please indicate whether the reported IC50 of CCc1cc(F)ccc1Oc1ccc(S(=O)(=O)Nc2cscn2)cc1I [Example 77] is strictly below 1000 nM.
[out] fulfilled

[in] Please indicate whether the reported IC50 of COc1cc(OC(F)(F)F)ccc1Oc1ccc(S(=O)(=O)Nc2ncns2)cc1C#N [Example 27] is strictly below 1000 nM.
[out] not fulfilled

[in] Please indicate whether the reported IC50 of N#Cc1cc(S(=O)(=O)Nc2cscn2)ccc1Oc1ccc(F)c(F)c1 [compound 228] is strictly below 1000 nM.
[out] fulfilled
